# target.under.test: T1, BCMA on BCMA-positive NCI-H929, ARP-1 and U266B1 cells (human, UniProt Q02223 1-184)
# T1 construct: they are human cell lines; also called B-cell maturation antigen; TNFRSF17
# T1 sequence: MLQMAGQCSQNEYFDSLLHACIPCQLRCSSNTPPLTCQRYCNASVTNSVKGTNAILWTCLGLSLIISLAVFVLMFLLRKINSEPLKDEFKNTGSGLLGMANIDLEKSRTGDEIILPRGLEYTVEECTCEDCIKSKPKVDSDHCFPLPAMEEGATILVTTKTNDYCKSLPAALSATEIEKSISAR
# measurement.description: FACS, NCI-H929 cells

binder	Bmax (MFI)
10G5 (antibody, V domains shown, chicken HybriFree-derived antibody; also called Antibody 31) VH: AVTLDESGGGLQTPGGVLSLVCKASGFTFSSFNMFWVRQAPGKGLEWVAYISNDGSSTSYGPAVKGRATISRDNGQSTVRLQLNNLRAEDTATYFCAKTTCIGSGGCIDTWGHGTEVIVSS VL: ALTQPSSVSANPGETVKITCSGGNYDYGWYQQKSPGSAPVTLIYYNNKRPSDIPSRFSGSKSGSTGTLTITGVQAEDEAIYYCANVDSTDDVFGAGTTLTVL	25800
9H1 (antibody, V domains shown, chicken HybriFree-derived antibody; also called Antibody 44) VH: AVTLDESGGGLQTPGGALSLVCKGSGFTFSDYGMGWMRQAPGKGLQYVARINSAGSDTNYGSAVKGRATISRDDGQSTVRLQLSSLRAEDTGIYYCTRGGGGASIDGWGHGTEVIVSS VL: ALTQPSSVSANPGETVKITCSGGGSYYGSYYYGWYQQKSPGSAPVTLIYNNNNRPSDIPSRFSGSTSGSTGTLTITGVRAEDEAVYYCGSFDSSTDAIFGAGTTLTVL	6160
